Tested on: Rattus norvegicus
method.summary: In vivo triglyceride lowering activity when dosed as 0.01 % of the diet
Type: functional
measurement.name: serum triglyceride level, percent of control

Here's what some known entries look like.
| compound | system.tested | reading |
| --- | --- | --- |
| CCCCCCCCCCCCCCCCNc1ccc(C(=O)C[S+](C)[O-])cc1 (stereo not drawn) | Rattus norvegicus | <64% |
| CCCCCCCCCCCCCCCCNc1ccc(CCC(=O)O)cc1 | Rattus norvegicus | <59% |

Measured serum triglyceride level, percent of control of `CCCCCCCCCCCCCCCCNc1ccc(C(=O)[N-]S(=O)(=O)c2ccc(C)cc2)cc1.[Na+]` : <52%

meta.source: ChEMBL document CHEMBL1122366
